- Tested on: cucumber anthracnose fungi (Colletotricum lagenarium)
- Format: in vivo
- studyConditions: 200 ppm spray; cucumber seedlings; seven days after inoculation
Reported values of Protective value for individual entries
recordedEndpoint: Protective value

| molecule | assayedTarget | reported |
| --- | --- | --- |
| CCCCCCC1C(=O)OC(C)C(NC(=O)c2cccc(NC=O)c2O)C(=O)OC(C)C1OC(=O)CC(C)C (stereo not shown) [Antimycin A, reference compound] | cucumber anthracnose fungi (Colletotricum lagenarium) | 17 |
| CC(C)C(=O)O[C@H]1[C@H](C)OC(=O)[C@@H](NC(=O)c2cc(Cl)ccc2O)COC(=O)[C@@H]1Cc1ccccc1 | cucumber anthracnose fungi (Colletotricum lagenarium) | 100 |
| CC(C)C(=O)O[C@H]1[C@H](C)OC(=O)[C@@H](NC(=O)c2nc3ccccc3nc2O)COC(=O)[C@@H]1Cc1ccccc1 | cucumber anthracnose fungi (Colletotricum lagenarium) | 100 |
| CC(C)C(=O)O[C@H]1[C@H](C)OC(=O)[C@@H](NC(=O)c2cccc(N)c2O)COC(=O)[C@@H]1Cc1ccccc1 | cucumber anthracnose fungi (Colletotricum lagenarium) | 100 |

Cited source for all entries: patent US7250389B1
